Target: BCL6 (Homo sapiens, UniProt P41182)
Construct: endogenous in cells; host or cells: T47D breast cancer epithelial cells
Assay: Immunofluorescence protocol for high content imaging of BCL6 (degradation) in T47D cells, 3 days compound treatment
Type: cell-based
Conditions: T47D cells, 3 days compound treatment, read-out: Mean Dmax (%)** category
Dmax values for the molecules below.

Here is how some molecules turned out for Dmax.
Prompt: Give the reported Dmax for CNC(=O)COc1cc2cc(Nc3nc(N4CC5C(CN6CCN(c7cccc8c7C(=O)N(C7CCC(=O)NC7=O)C8=O)CC6)C5C4)ncc3Cl)ccc2n(C(C)C)c1=O (stereo not shown) [Compound 158] (system: BCL6 (Homo sapiens, UniProt P41182)).
Completion: < 50%

Prompt: Tell me reported Dmax for CNC(=O)COc1cc2cc(Nc3nc(N4CCC(CN5CCC6(CC(=O)N(c7ccc8c(c7)CN(C7CCC(=O)NC7=O)C8=O)C6)C5)CC4)ncc3Cl)ccc2n(C(C)C)c1=O (stereo not shown) [Compound 39] , tested with BCL6 (Homo sapiens, UniProt P41182).
Completion: 50 to 70%

Prompt: # returns recorded Dmax (system: BCL6 (Homo sapiens, UniProt P41182)) for CNC(=O)COc1cc2cc(Nc3nc(N4CCC(O[C@H]5CC[C@H](Oc6ccc7c(c6)C(=O)N(C6CCC(=O)NC6=O)C7=O)CC5)CC4)ncc3Cl)ccc2n(C(C)C)c1=O (stereo partly shown) [Compound 30]
Completion: 50 to 70%

Prompt: For the record CNC(=O)COc1cc2cc(Nc3nc(N4CCC(O[C@H]5C[C@H](N6CCN(c7ccc8c(c7F)CN(C7CCC(=O)NC7=O)C8=O)[C@H](C)C6)C5)CC4)ncc3Cl)ccc2n(C(C)C)c1=O (stereo partly shown) [Compound 175] , what value of Dmax is listed for BCL6 (Homo sapiens, UniProt P41182)?
Completion: ≥ 70%

Prompt: Can you look up Dmax on BCL6 (Homo sapiens, UniProt P41182) for CNC(=O)COc1cc2cc(Nc3nc(N4CCC(O[C@H]5C[C@H](N6CCC(c7ccc8c(c7F)CN(C7CCC(=O)NC7=O)C8=O)CC6)C5)CC4)ncc3Cl)ccc2n(C2CCC2)c1=O (stereo partly shown) [Compound 190] ?
Completion: ≥ 70%

Prompt: Query for BCL6 (Homo sapiens, UniProt P41182): what Dmax does the record show for CNC(=O)COc1cc2cc(Nc3nc(N4CCN(CC5CCN(c6cc(F)cc7c6CN(C6CCC(=O)NC6=O)C7=O)CC5)CC4)ncc3Cl)ccc2n(C(C)C)c1=O (stereo not shown) [Compound 105] ?
Completion: 50 to 70%

Prompt: Give recorded Dmax with BCL6 (Homo sapiens, UniProt P41182) for the following molecule: CNC(=O)COc1cc2cc(Nc3nc(N4CCC(F)(CN5CC6(CCN(c7ccc8c(c7)CN(C7CCC(=O)NC7=O)C8=O)CC6)C5)CC4)ncc3Cl)ccc2n(C(C)C)c1=O (stereo not shown) [Compound 122]
Completion: 50 to 70%

Prompt: Lookup: Dmax / BCL6 (Homo sapiens, UniProt P41182) / CNC(=O)COc1cc2cc(Nc3nc(N4CCC(O[C@H]5C[C@@H](N6CCC(c7ccc8c(c7)C(=O)N(C7CCC(=O)NC7=O)C8=O)CC6)C5)CC4)ncc3Cl)ccc2n(C(C)C)c1=O (stereo partly shown) [Compound 153]
Completion: < 50%

Prompt: Provide value of Dmax for this record tested with BCL6 (Homo sapiens, UniProt P41182): CNC(=O)COc1cc2cc(Nc3nc(N4CCC(O[C@H]5C[C@H](N6C[C@@H](C)N(c7ccc8c(c7)CN(C7CCC(=O)NC7=O)C8=O)[C@@H](C)C6)C5)CC4)ncc3Cl)ccc2n(C(C)C)c1=O (stereo partly shown) [Compound 174]
Completion: ≥ 70%

// next entry
Prompt: Short answer please: Dmax, BCL6 (Homo sapiens, UniProt P41182), entry CNC(=O)COc1cc2cc(Nc3nc(N4CCC(CN5CC6(CCN(c7cc8c(cc7OC)C(=O)N(C7CCC(=O)NC7=O)C8)CC6)C5)CC4)ncc3Cl)ccc2n(C(C)C)c1=O (stereo not shown) [Compound 85]
Completion: 50 to 70%

Entry source: patent US11986532B2
